- testMethodNotes: HEK293 cellular growth inhibition assay (CellTiter-Glo)
- Type: cell-based
- testSettings: human, HEK293 cells, 7 days of incubation

molecule	CC50 at 7 days
Cc1c(CN2CCC3(CC2)CN(c2ncnc4ccc(CC(F)(F)F)cc24)C3)ccc2c1cc(C#N)n2CC12CC(NS(N)(=O)=O)(C1)C2	5 to 10 µM
Cc1c(CN2CCC3(CC2)CN(c2ncnc4ccc(CC(F)(F)F)cc24)C3)ccc2c1cc(C#N)n2CCCCN1CCN(S(C)(=O)=O)CC1	2 to 5 µM
CNC(=O)NC12CC(Cn3c(C#N)cc4c(C)c(CN5CCC6(CC5)CN(c5ncnc7ccc(CC(F)(F)F)cc57)C6)ccc43)(C1)C2	2 to 5 µM
Cc1c(CN2CCC3(CC2)CN(c2ncnc4ccc(CC(F)(F)F)c(F)c24)C3)ccc2c1cc(C#N)n2CC1CNC(=O)CO1 (stereo not shown)	≤ 2 µM

Value source: patent US20250163061A1
